TEST NAME: Permeability of the compound by PAMPA
Type: ADME
SETTINGS: read-out: permeability
EXPERIMENTAL ENDPOINT: Papp (×10⁻⁶ cm/s)

                                     smiles  experimental_endpoint  units_symbol  observed_measurement
0  Nc1ccccc1NC(=O)c1ccc(CNC2=N[C@@H](c3ccccc3)CS2)cc1                   Papp    ×10⁻⁶ cm/s                    51

---

TARGET OR TEST SYSTEM: Histone deacetylase 3/NCoR1 (Homo sapiens)
TEST NAME: Inhibition of recombinant HDAC3-NCoR1 (unknown origin) using MAL as substrate incubated for 3 hrs prior to substrate addition measured after 60 mins by fluorescence plate reader analysis
pIC50: −log10 of the molar value.
As shown below, each of these compounds has a reported pIC50 value.
EXPERIMENTAL ENDPOINT: pIC50

>>> print(df.to_string())
                                   compound  censoring_operator  observed_measurement
0  Nc1ccccc1NC(=O)c1ccc(CSC2=N[C@@H](c3ccccc3)CS2)cc1                   =                  7.20
1  Nc1cc(Br)ccc1NC(=O)c1ccc(CNc2nccc(-c3cccnc3)n2)cc1                   =                  5.33
2  Nc1ccccc1NC(=O)c1ccc(CNC2=N[C@H](c3ccccc3)[C@@H](c3ccccc3)S2)cc1                   =                  6.54
3  Nc1cc(-c2ccccc2)ccc1NC(=O)c1ccc(CNc2nccc(-c3cccnc3)n2)cc1                   <                  4.70
4  Nc1ccccc1NC(=O)c1ccc(CN=C2N[C@@H](c3ccccc3)[C@H](c3ccccc3)S2)cc1                   =                  6.41
5  Nc1ccccc1NC(=O)c1ccc(CNC2=NC(=O)C(Cc3c[nH]c4ccccc34)N2)cc1 (racemic)                   =                  6.98
6  Nc1ccccc1NC(=O)c1ccc(CNC2=N[C@@H](c3ccc(O)cc3)CS2)cc1                   =                  7.80
7  CC(C)(C)[Si](C)(C)OCc1ccc(NC(=O)c2ccc(CNc3nccc(-c4cccnc4)n3)cc2)c(N)c1                   <                  4.70
8  Nc1cc(CO)ccc1NC(=O)c1ccc(CNc2nccc(-c3cccnc3)n2)cc1                   <                  4.70

---

TARGET OR TEST SYSTEM: Histone deacetylase 3/NCoR1 (Homo sapiens, UniProt O15379)
Sequence (O15379 whole entry): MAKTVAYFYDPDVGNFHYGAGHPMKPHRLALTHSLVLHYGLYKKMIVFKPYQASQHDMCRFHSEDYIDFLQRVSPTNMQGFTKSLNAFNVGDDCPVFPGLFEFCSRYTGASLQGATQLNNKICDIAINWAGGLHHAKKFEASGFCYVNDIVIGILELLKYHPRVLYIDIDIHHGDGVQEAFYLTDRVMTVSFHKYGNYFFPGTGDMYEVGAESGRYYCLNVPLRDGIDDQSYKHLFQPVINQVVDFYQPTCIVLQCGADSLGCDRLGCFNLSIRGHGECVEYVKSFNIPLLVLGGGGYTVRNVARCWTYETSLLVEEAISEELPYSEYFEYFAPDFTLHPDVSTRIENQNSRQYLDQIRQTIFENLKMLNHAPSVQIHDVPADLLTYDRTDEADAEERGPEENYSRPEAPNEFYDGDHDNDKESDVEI
Sequence (O75376 whole entry, further chain): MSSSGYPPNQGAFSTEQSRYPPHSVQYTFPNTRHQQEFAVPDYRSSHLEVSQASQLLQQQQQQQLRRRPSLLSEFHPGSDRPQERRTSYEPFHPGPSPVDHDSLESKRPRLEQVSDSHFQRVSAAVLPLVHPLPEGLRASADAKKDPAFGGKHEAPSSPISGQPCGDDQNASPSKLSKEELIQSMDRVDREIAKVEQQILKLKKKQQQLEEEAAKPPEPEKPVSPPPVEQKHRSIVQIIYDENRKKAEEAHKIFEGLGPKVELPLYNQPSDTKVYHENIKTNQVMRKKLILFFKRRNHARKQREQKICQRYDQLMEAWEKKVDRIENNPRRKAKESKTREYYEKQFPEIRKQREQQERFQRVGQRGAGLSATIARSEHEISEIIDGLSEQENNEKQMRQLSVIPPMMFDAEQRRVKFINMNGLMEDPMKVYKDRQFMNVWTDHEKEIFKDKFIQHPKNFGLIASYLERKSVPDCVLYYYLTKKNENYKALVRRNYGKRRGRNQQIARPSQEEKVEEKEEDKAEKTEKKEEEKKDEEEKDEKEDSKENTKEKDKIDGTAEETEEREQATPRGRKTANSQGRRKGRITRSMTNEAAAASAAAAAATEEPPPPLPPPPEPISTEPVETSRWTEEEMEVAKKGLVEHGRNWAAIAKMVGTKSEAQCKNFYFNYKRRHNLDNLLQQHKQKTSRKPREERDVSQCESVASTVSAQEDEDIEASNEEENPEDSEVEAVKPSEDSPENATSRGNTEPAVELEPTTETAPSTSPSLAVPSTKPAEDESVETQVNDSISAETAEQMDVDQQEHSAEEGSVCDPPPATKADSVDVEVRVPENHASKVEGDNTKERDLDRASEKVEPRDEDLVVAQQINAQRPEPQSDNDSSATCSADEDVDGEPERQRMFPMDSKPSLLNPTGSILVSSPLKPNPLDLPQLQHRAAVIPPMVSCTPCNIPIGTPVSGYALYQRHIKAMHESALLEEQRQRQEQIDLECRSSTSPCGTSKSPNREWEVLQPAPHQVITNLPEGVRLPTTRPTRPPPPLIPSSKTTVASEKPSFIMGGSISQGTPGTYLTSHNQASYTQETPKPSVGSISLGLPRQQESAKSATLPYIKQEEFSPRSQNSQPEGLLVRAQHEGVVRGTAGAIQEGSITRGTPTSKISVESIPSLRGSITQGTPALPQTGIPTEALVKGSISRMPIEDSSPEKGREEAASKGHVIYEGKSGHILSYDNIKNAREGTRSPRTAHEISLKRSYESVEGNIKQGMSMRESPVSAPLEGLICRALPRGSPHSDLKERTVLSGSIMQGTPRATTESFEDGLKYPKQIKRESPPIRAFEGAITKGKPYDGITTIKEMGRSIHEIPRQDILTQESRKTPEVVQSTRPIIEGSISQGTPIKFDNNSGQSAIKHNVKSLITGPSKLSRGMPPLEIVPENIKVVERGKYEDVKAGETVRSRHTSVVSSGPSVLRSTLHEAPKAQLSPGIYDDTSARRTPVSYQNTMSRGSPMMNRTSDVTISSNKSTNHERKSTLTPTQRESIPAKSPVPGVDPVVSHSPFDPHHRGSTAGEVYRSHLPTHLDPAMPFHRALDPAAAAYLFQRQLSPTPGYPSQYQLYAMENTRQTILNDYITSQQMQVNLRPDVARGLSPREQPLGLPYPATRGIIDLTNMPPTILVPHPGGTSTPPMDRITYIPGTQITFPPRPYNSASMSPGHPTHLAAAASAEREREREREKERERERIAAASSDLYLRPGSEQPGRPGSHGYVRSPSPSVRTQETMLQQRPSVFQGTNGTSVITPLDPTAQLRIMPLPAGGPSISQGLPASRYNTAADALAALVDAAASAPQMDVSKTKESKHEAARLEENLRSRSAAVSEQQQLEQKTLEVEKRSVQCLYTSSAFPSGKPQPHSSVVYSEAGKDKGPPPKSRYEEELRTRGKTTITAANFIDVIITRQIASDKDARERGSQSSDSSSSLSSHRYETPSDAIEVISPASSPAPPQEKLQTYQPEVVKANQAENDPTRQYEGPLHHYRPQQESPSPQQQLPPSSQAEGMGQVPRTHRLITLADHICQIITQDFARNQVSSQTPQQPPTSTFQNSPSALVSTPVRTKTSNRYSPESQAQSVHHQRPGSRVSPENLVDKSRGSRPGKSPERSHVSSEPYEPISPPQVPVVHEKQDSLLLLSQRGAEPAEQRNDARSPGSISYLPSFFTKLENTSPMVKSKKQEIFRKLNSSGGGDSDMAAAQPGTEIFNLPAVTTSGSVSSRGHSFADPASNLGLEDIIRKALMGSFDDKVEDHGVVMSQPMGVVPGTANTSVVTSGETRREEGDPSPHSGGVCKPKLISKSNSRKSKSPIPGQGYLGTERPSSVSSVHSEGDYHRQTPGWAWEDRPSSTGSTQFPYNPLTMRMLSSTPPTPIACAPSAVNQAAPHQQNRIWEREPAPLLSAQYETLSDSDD
TEST NAME: Inhibition of recombinant HDAC3-NCoR1 (unknown origin) using MAL as substrate incubated for 3 hrs prior to substrate addition measured after 60 mins by fluorescence plate reader analysis
pIC50: −log10 of the molar value.
EXPERIMENTAL ENDPOINT: pIC50

>>> print(df.to_string())
                                   compound                     target_or_test_system  censoring_operator  observed_measurement
0  CC(=O)N1C(NCc2ccc(C(=O)Nc3ccccc3N)cc2)=NC(=O)C1Cc1c[nH]c2ccccc12 (racemic)  Histone deacetylase 3/NCoR1 (Homo sapiens, UniProt O15379)                   =                  7.15
1  Nc1cc(C(=O)OCc2ccccc2)ccc1NC(=O)c1ccc(CNc2nccc(-c3cccnc3)n2)cc1  Histone deacetylase 3/NCoR1 (Homo sapiens, UniProt O15379)                   <                  4.70
2  Nc1ccccc1NC(=O)c1ccc(CNC2=N[C@@H](Cc3ccccc3)CS2)cc1  Histone deacetylase 3/NCoR1 (Homo sapiens, UniProt O15379)                   =                  7.28
3  Nc1ccccc1NC(=O)c1ccc(CN=C2N[C@H](c3ccccc3)CS2)cc1  Histone deacetylase 3/NCoR1 (Homo sapiens, UniProt O15379)                   =                  7.10
4  Nc1cc2ccccc2cc1NC(=O)c1ccc(CNc2nccc(-c3cccnc3)n2)cc1  Histone deacetylase 3/NCoR1 (Homo sapiens, UniProt O15379)                   =                  6.20
5  Nc1ccccc1NC(=O)c1ccc(CSC2=N[C@@H](Cc3c[nH]c4ccccc34)CS2)cc1  Histone deacetylase 3/NCoR1 (Homo sapiens, UniProt O15379)                   =                  6.05
6  Nc1ccccc1NC(=O)c1ccc(CSC2=N[C@@H](Cc3ccccc3)CS2)cc1  Histone deacetylase 3/NCoR1 (Homo sapiens, UniProt O15379)                   =                  6.29
7  Nc1ccccc1NC(=O)c1ccc(CNC2=NC(=O)C(c3ccccc3)N2)cc1 (racemic)  Histone deacetylase 3/NCoR1 (Homo sapiens, UniProt O15379)                   =                  7.85
8  Nc1ccccc1NC(=O)c1ccc(CNC2=NC(=O)C(Cc3ccccc3)N2)cc1 (racemic)  Histone deacetylase 3/NCoR1 (Homo sapiens, UniProt O15379)                   =                  7.52

---

TARGET OR TEST SYSTEM: Cytochrome P450 3A4 (Homo sapiens)
Sequence (P08684 whole entry): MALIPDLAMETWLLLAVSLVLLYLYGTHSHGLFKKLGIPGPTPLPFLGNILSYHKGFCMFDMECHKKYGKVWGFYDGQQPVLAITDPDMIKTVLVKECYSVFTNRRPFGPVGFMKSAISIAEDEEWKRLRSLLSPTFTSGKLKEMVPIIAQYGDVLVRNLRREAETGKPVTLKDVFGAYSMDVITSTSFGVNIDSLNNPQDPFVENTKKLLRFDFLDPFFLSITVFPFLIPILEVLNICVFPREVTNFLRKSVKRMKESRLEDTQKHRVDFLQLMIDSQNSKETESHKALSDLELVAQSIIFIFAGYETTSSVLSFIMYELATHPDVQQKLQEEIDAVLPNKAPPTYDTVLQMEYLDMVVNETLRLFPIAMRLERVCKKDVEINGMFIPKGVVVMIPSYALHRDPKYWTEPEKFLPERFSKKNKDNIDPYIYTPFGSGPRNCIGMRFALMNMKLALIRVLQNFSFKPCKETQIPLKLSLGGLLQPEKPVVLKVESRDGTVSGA
TEST NAME: Inhibition of CYP3A4 (unknown origin) using vivid green as substrate
Assay type: ADME
EXPERIMENTAL ENDPOINT: IC50 (µM)

>>> df
                                     smiles  units_symbol  observed_measurement
0  Nc1ccccc1NC(=O)c1ccc(CNC2=N[C@@H](c3ccccc3)CS2)cc1            µM                    16

---

TARGET OR TEST SYSTEM: Cytochrome P450 2C19 (Homo sapiens)
Sequence (P33261 whole entry): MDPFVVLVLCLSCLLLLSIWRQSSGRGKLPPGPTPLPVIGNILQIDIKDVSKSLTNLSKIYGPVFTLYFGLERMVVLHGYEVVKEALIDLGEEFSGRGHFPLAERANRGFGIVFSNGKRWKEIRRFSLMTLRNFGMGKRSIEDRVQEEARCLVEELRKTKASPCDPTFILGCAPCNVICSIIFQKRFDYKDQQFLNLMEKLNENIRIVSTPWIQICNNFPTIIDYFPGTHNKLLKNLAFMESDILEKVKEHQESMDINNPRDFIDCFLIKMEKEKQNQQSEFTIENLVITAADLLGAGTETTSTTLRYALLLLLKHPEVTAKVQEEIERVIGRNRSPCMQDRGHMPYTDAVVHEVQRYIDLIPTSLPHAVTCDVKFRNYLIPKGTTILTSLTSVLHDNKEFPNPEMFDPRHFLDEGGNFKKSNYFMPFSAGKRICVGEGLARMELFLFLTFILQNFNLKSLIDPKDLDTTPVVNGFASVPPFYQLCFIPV
EXPERIMENTAL ENDPOINT: IC50 (µM)

                                     smiles  experimental_endpoint  units_symbol  observed_measurement
0  Nc1ccccc1NC(=O)c1ccc(CNC2=N[C@@H](c3ccccc3)CS2)cc1                   IC50            µM                    32

---

As shown below, each of these compounds has a reported IC50 value.
TARGET OR TEST SYSTEM: Histone deacetylase 8 (Homo sapiens)
Sequence (Q9BY41 whole entry): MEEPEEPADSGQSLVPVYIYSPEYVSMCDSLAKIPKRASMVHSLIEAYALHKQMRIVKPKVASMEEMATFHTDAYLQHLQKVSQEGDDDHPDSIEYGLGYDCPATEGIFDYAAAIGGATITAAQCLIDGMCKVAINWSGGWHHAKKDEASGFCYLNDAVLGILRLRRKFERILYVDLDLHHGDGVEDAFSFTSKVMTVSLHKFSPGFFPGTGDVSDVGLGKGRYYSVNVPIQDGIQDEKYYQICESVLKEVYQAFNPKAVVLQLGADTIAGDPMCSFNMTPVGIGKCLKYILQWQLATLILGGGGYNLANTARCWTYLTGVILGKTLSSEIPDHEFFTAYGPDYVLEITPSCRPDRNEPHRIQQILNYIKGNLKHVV
TEST NAME: Inhibition of recombinant HDAC8 (unknown origin) expressed in Escherichia coli BL21 using MAL as substrate incubated for 15 mins prior to substrate addition measured after 60 mins by fluorescence plate reader analysis
EXPERIMENTAL ENDPOINT: IC50

In [3]: df
Out[3]:
                                    compound  experimental_endpoint  observed_measurement
 0  Nc1cc(CO)ccc1NC(=O)c1ccc(CNc2nccc(-c3cccnc3)n2)cc1                   IC50               > 20 µM
 1  Nc1cc(C(=O)O)ccc1NC(=O)c1ccc(CNc2nccc(-c3cccnc3)n2)cc1                   IC50               > 20 µM
 2  Nc1cc2ccccc2cc1NC(=O)c1ccc(CNc2nccc(-c3cccnc3)n2)cc1                   IC50               > 20 µM
 3  CC(C)(C)[Si](C)(C)OCc1ccc(NC(=O)c2ccc(CNc3nccc(-c4cccnc4)n3)cc2)c(N)c1                   IC50               > 20 µM
 4  Nc1ccccc1NC(=O)c1ccc(CNC2=N[C@@H](c3ccc(O)cc3)CS2)cc1                   IC50                 15 µM
 5  Nc1ccccc1NC(=O)c1ccc(CSC2=N[C@@H](Cc3c[nH]c4ccccc34)CS2)cc1                   IC50               > 20 µM
 6  Nc1cc(O)ccc1NC(=O)c1ccc(CNc2nccc(-c3cccnc3)n2)cc1                   IC50               > 20 µM
 7  Nc1ccccc1NC(=O)c1ccc(CN=C2N[C@H](c3ccccc3)CS2)cc1                   IC50               10.7 µM
 8  Nc1ccccc1NC(=O)c1ccc(CNC2=NC(=O)C(Cc3c[nH]c4ccccc34)N2)cc1 (racemic)                   IC50               > 20 µM
 9  Nc1cc(Br)ccc1NC(=O)c1ccc(CNc2nccc(-c3cccnc3)n2)cc1                   IC50               > 20 µM
10  Nc1ccccc1NC(=O)c1ccc(CNC2=NC(=O)C(c3ccccc3)N2)cc1 (racemic)                   IC50                  8 µM
11  Nc1cc(-c2ccccc2)ccc1NC(=O)c1ccc(CNc2nccc(-c3cccnc3)n2)cc1                   IC50               > 20 µM
12    O=C(NO)c1ccc(CNc2nccc(-c3cccnc3)n2)cc1                   IC50               0.41 µM
13  Nc1ccccc1NC(=O)c1ccc(CN=C2NC[C@H](c3ccccc3)S2)cc1                   IC50                2.3 µM
14  Nc1ccccc1NC(=O)c1ccc(CN=C2N[C@@H](c3ccccc3)[C@H](c3ccccc3)S2)cc1                   IC50               12.6 µM
15  Nc1ccccc1NC(=O)c1ccc(CNC2=NC(=O)C(Cc3ccccc3)N2)cc1 (racemic)                   IC50                 13 µM
16  COc1ccc(NC(=O)c2ccc(CNc3nccc(-c4cccnc4)n3)cc2)c(N)c1                   IC50               > 20 µM
17  Nc1ccccc1NC(=O)c1ccc(CSC2=N[C@@H](Cc3ccccc3)CS2)cc1                   IC50               > 20 µM
18  CC(=O)N1C(NCc2ccc(C(=O)Nc3ccccc3N)cc2)=NC(=O)C1Cc1c[nH]c2ccccc12 (racemic)                   IC50               24.3 µM
